Please respond with reported Activity for every item in the list.
Tested on: Aspergillus ochraceus
Assay: Compound was tested for transformation of progesterone by Dehydrated immobilized spores of Aspergillus orchraceus TS using the method Ethylacetate
Assay type: functional

// below: answered molecules
>>> df
                                   molecule  outcome_measure                   result
0  CC(=O)[C@@]1(O)CC[C@H]2[C@@H]3CCC4=CC(=O)CC[C@]4(C)[C@H]3CC[C@@]21C [HYDROXYPROGESTERONE]         Activity  20.8 uM (g of spores)-1
1  C[C@]12CC[C@H]3[C@@H](CCC4=CC(=O)CC[C@@]43C)[C@@H]1CC[C@@H]2O         Activity   3.9 uM (g of spores)-1
2  CC(=O)C1CCC2C3CCC4=CC(=O)C=CC4(C)C3CCC12C (stereo unspecified)         Activity  23.6 uM (g of spores)-1
3  C[C@]12CCC(=O)C[C@@H]1CC[C@@H]1[C@@H]2CC[C@]2(C)[C@@H](O)CC[C@@H]12         Activity   4.2 uM (g of spores)-1
4  C[C@]12C=CC(=O)C=C1CC[C@@H]1[C@@H]2CC[C@]2(C)C(=O)CC[C@@H]12         Activity  22.2 uM (g of spores)-1

The recorded Activity for entry `C[C@]12CCC(=O)C=C1CC[C@@H]1[C@@H]2CC[C@]2(C)C(=O)CC[C@@H]12` equals 58.7 uM (g of spores)-1

* * *

Test system: Aspergillus ochraceus
Assay: Compound was tested for transformation of progesterone by Dehydrated immobilized spores of Aspergillus orchraceus TS using the method n-Butylacetate
Format: functional
Outcome measure: Activity

>>> print(df.to_string())
                                   molecule                   result
0  C[C@]12CC[C@H]3[C@@H](CCC4=CC(=O)CC[C@@]43C)[C@@H]1CC[C@@H]2O   2.6 uM (g of spores)-1
1  C[C@]12C=CC(=O)C=C1CC[C@@H]1[C@@H]2CC[C@]2(C)C(=O)CC[C@@H]12  15.8 uM (g of spores)-1
2  CC(=O)C1CCC2C3CCC4=CC(=O)C=CC4(C)C3CCC12C (stereo unspecified)  13.8 uM (g of spores)-1
3  C[C@]12CCC(=O)C=C1CC[C@@H]1[C@@H]2CC[C@]2(C)C(=O)CC[C@@H]12  40.4 uM (g of spores)-1
4  CC(=O)[C@@]1(O)CC[C@H]2[C@@H]3CCC4=CC(=O)CC[C@]4(C)[C@H]3CC[C@@]21C [HYDROXYPROGESTERONE]  12.2 uM (g of spores)-1

Shift focus to the following entry.
Recorded result, `C[C@]12CCC(=O)C[C@@H]1CC[C@@H]1[C@@H]2CC[C@]2(C)[C@@H](O)CC[C@@H]12` , Activity: 2.7 uM (g of spores)-1
